# STUDY SYSTEM: T1, Zika virus envelope protein, strain ILM (Brazil Paraiba 2015) (Zika virus strain ILM (Brazil Paraiba …))
# T1 construct: also called Zika strain ILM; Zika virus EP
Below, each entry is listed alongside its reported Kd.

BINDER | Kd
mAb 8 (antibody, V domains shown, also called VH.1 / VL.2) VH: EVQLLESGGGLVQPGGSLRLSCAASGFSFSTYSMHWVRQAPGKGLEWVSAISGEGDSAYYADSVKGRFTISRDNSKNTLYLQMNKVRAEDTAVYYCVGGYSNFYYYYTMDAWGQGTMVTVSS VL: DIVMTQSPASLSLSPGERATLSCRATQSISTFLAWYQQKPGQAPRLLIYDASTRASGIPARFSGSRSGTDFTLTITRLEPEDFAVYYCQQRYNWPPYSFGQGTKLEIK | 19.3 µg/mL
fusion loop targeting pan-flavivirus antibody 4G2 (antibody, V domains shown) VH: EVQLQQSGPELVKPGTSVKISCKTSGYTFTEYTIHWVKQSHGKSLAWIGGIDPNSGGTNYSPNFKGKATLTVDKSSSTAYMDLRSLSSEDSAVYFCARIYHYDGYFDVWGAGTAVTVSS VL: DIKMTQSPSSMYASLGERVTITCKASQDINSYLTWFQQKPGKSPKTLIYRANRLIDGVPSRFSGSGSGQDYSLTISSLDYEDMGIYYCLQYDEFPPTFGGGTKLEIKR | 6.41 µg/mL
mAb 7 (antibody, V domains shown, also called VH.2 / VL.4) VH: EVQLLESGGGLVQPGGSLRLSCAASGFSFSTYSMHWVRQAPGKGLEWVSAISGEGDSAYYADSVKGRFEISRDNSKNTLYLQMNKVRAEDTAVYYCVGGYSNFYYYYTMDAWGQGTMVTVSS VL: DIVMTQSPASLSLSPGERATLSCRATQSIVTFLAWYQQKPGQAPRLLIYDASTNASGIPARFSGSRSGTDFTLTITRLEPEDFAVYYCQQRYNWPPYSFGQGTKLEIK | 5.21 µg/mL
mAb 6 (antibody, V domains shown, also called VH.3 / VL.1) VH: EVQLVESGGGLVQPGGSLRLSCSASGFSFSTYSMHWVRQAPGKGLEYVSAITGEGDSAFYADSVKGRFTISRDNSKNTLYFEMNSLRPEDTAVYYCVGGYSNFYYYYTMDAWGQGTSVTVSS VL: EIVLTQSPASLSLSPGERATLSCRATQSISTFLAWYQHKPGQAPRLLIYDASTRASGVPARFSGSRSGTDFTLTISSLEPEDFAVYYCQQRYNWPPYSFGQGTKVEIK | 3.85 µg/mL
